Source: ChEMBL document CHEMBL4819088

- Species: Danio rerio
- TEST NAME: Cardioprotective activity in (cmlc2:GFP) transgenic Zebrafish assessed as reduction in doxorubicin-induced cardiac impairment measured after 48 hrs
- Assay type: functional, organism-based
VALUE KIND: Activity

Examples from the recorded data:
Problem: Could you tell me which Activity is on file for COc1cc(C(=O)OC[C@@H]2C(=O)[C@@]3(C)CC[C@H]4[C@]5(C)CCC[C@@](C)(C(=O)O)[C@H]5CC[C@@]24C3)cc(OC)c1OC ?
Solution: Dose-Dependent Effect

Problem: Could you tell me which Activity is on file for COc1ccc(C(=O)OC[C@@H]2C(=O)[C@@]3(C)CC[C@H]4[C@]5(C)CCC[C@@](C)(C(=O)O)[C@H]5CC[C@@]24C3)c(OC)c1OC ?
Solution: Dose-Dependent Effect

Problem: Could you tell me which Activity is on file for COc1cc(C(=O)OC[C@@H]2C(=O)[C@@]3(C)CC[C@H]4[C@]5(C)CCC[C@@](C)(N)[C@H]5CC[C@@]24C3)cc(OC)c1OC ?
Solution: Dose-Dependent Effect

Problem: Could you tell me which Activity is on file for COc1ccc(C(=O)OC[C@@H]2C(=O)[C@@]3(C)CC[C@H]4[C@]5(C)CCC[C@@](C)(N)[C@H]5CC[C@@]24C3)c(OC)c1OC ?
Solution: Dose-Dependent Effect

Problem: Could you tell me which Activity is on file for C[C@@]12CC[C@@H]3[C@@](CC[C@H]4[C@@]3(C)CCC[C@@]4(C)N)(CC1=O)C2 ?
Solution: Dose-Dependent Effect

Switching to the query record.
Problem: Could you tell me which Activity is on file for C[C@@]12CC[C@@H]3[C@@](CC[C@H]4[C@@]3(C)CCC[C@@]4(C)C(=O)O)(CC1=O)C2 ?
Solution: Dose-Dependent Effect
